Target: CCR2 (Homo sapiens, UniProt P41597)
Sequence (P41597 1-360 isoform P41597-2): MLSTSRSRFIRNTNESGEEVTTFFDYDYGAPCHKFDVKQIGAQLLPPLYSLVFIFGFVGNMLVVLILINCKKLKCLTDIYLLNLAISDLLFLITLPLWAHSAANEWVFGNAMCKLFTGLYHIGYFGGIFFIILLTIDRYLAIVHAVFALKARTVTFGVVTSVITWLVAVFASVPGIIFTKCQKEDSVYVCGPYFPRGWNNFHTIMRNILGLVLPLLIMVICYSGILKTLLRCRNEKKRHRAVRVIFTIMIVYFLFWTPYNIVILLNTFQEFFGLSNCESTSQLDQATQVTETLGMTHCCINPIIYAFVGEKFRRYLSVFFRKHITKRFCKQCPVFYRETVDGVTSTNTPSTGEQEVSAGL
Assay: MCP-1 Receptor Binding Assay in THP-1 Cells
Conditions: 0.5 nM 125I labeled MCP-1, 2 hours at 30° C., read-out: Inhibition of MCP-1 Binding IC50 CCR2 Binding
property name: pIC50
// pIC50 here means minus log10 of the molar concentration (mol/L)

These recorded examples may help you get a feel for the data.
Cn1c(=O)n(C)c2cc(C3(O)CCC(N4CC(NC(=O)CNC(=O)c5cccc(C(F)(F)F)c5)C4)CC3)ccc21 (stereo not shown)	7.09
COc1ccc(C2(N)CCC(N3CC(NC(=O)CNC(=O)c4cccc(C(F)(F)F)c4)C3)CC2)cc1 (stereo not shown)	6.49
O=C(CNC(=O)c1ccc([N+](=O)[O-])c(C(F)(F)F)c1)NC1CN(C2CCC(c3ccccc3)CC2)C1 (stereo not shown)	6.31
O=C(O)Cc1ccc(C2CCC(N3CC(NC(=O)CNC(=O)c4cccc(C(F)(F)F)c4)C3)CC2)cc1 (stereo not shown)	6.49
O=C(CNC(=O)c1cccc(C(F)(F)F)c1)NC1CN(C2CCC(c3ccc(N4CCCC4)cc3)CC2)C1 (stereo not shown)	7.21
CSc1cccc(C2(O)CCC(N3CC(NC(=O)CNC(=O)c4cccc(C(F)(F)F)c4)C3)CC2)c1 (single isomer, unassigned) [Example 38a]	6.72

Now turn to the next compound.
What does the data say about its pIC50? Entry: O=C(CNC(=O)c1cccc(C(F)(F)F)c1)NC1CN(C2CCC(O)(c3ccc4c(c3)OCO4)CC2)C1 (single isomer, unassigned) [Example 31a]
7.34

---

Attribute: IC50
Molecular target: CCR2 (Homo sapiens, UniProt P41597)
Sequence (P41597 1-360 isoform P41597-2): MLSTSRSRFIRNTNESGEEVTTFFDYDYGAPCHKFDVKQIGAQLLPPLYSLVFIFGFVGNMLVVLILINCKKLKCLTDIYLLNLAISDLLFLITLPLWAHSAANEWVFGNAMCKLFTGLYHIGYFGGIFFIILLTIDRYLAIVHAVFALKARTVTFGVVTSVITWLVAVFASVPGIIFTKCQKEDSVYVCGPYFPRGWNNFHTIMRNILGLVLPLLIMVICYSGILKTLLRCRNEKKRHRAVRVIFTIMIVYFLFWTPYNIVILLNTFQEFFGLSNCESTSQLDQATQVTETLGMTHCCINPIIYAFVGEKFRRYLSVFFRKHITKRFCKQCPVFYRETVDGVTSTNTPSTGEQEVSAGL
Test: MCP-1 Receptor Binding Assay in THP-1 Cells
Settings: 0.5 nM 125I labeled MCP-1, 2 hours at 30° C., read-out: Inhibition of MCP-1 Binding IC50 CCR2 Binding
Your answer should be a plain number; it is taken to be in nM.

NC(=O)Nc1ccc(C2CCC(N3CC(NC(=O)CNC(=O)c4cccc(C(F)(F)F)c4)C3)CC2)cc1 (stereo not shown)	130

// map Nc1cccc(C2(O)CCC(N3CC(NC(=O)CNC(=O)c4cccc(C(F)(F)F)c4)C3)CC2)c1 (single isomer, unassigned) [Example 58a] to recorded IC50 (system: CCR2 (Homo sapiens, UniProt P41597))
52

Next record, please: O=C(CNC(=O)c1cc(F)cc(C(F)(F)F)c1)NC1CN(C2CCC(c3ccccc3)CC2)C1 (single isomer, unassigned) [Example 76a]
220

Next record, please: CCc1cccc(C2(O)CCC(N3CC(NC(=O)CNC(=O)c4cccc(C(F)(F)F)c4)C3)CC2)c1 (stereo not shown)
160

Next record, please: O=C(CNC(=O)c1cccc(C(F)(F)F)c1)NC1CN(C2CCC(c3cccc(C(=O)O)c3)CC2)C1 (stereo not shown)
220

Next record, please: N#Cc1cccc(C2(O)CCC(N3CC(NC(=O)CNC(=O)c4cccc(C(F)(F)F)c4)C3)CC2)c1 (single isomer, unassigned) [Example 48a]
413

Next record, please: NC1(c2ccc3c(c2)OCO3)CCC(N2CC(NC(=O)CNC(=O)c3cccc(C(F)(F)F)c3)C2)CC1 (single isomer, unassigned) [Example 85a]
280

Next record, please: COc1ccccc1C1(O)CCC(N2CC(NC(=O)CNC(=O)c3cccc(C(F)(F)F)c3)C2)CC1 (single isomer, unassigned) [Example 56a]
5200

Next record, please: NC(=O)Cc1ccc(C2CCC(N3CC(NC(=O)CNC(=O)c4cccc(C(F)(F)F)c4)C3)CC2)cc1 (stereo not shown)
70

Next record, please: O=C(CNC(=O)c1cccc(C(F)(F)F)c1)NC1CN(C2CCC(O)(c3ccc(C(=O)O)cc3)CC2)C1 (stereo not shown)
6900

Next record, please: COc1cccc(C2(N)CCC(N3CC(NC(=O)CNC(=O)c4cccc(C(F)(F)F)c4)C3)CC2)c1 (single isomer, unassigned) [Example 87a]
330

Next record, please: O=C(CNC(=O)c1cccc(C(F)(F)F)c1)NC1CN(C2CCC(O)(c3ccc4oc(=O)[nH]c4c3)CC2)C1 (single isomer, unassigned) [Example 35a]
190

Next record, please: COC(=O)COc1ccc(C2CCC(N3CC(NC(=O)CNC(=O)c4cccc(C(F)(F)F)c4)C3)CC2)cc1 (stereo not shown)
38
